- Tested on: A-431
- Experimental Protocol: Antiproliferative activity against human A431 cells overexpressing EGFR after 72 hrs by MTS assay
- Experimental Setup: A-431, 72 h
Measure Name: IC50 (nM)

Reference set, count: 2
1. C=CC(=O)Nc1cccc(N2C(=O)N(C)Cc3cnc(Nc4ccc(N5CCN(C)CC5)cc4C)nc32)c1 = 990
2. C=CC(=O)Nc1cccc(N2C(=O)N(C)Cc3cnc(Nc4ccc(N5CCN(C)CC5)cc4OCC)nc32)c1 = 1080

a = C=CC(=O)Nc1cccc(N2C(=O)N(C(C)C)Cc3cnc(Nc4ccc(N5CCN(C)CC5)cc4OC)nc32)c1
b = C=CC(=O)Nc1cccc(Oc2nc(Nc3ccc(N4CCN(C)CC4)cc3OC)ncc2Cl)c1
Req: Compare a and b by numeric IC50 and name the larger one. When you have decided, please share the label of that item.
Resp: b
(b: 1390 nM, a: 820 nM)

* * *

- Tested on: A549
- Experimental Protocol: Antiproliferative activity against human A549 cells expressing wild type EGFR coexpressing k-Ras mutant after 72 hrs by MTS assay
- Experimental Setup: A549, 72 h
Measure Name: IC50 (µM)

1) C=CC(=O)Nc1cccc(N2C(=O)N(C(C)C)Cc3cnc(Nc4ccc(N5CCN(C)CC5)cc4OC)nc32)c1 = 8.42
2) C=CC(=O)Nc1cccc(N2C(=O)N(C)Cc3cnc(Nc4ccc(N5CCN(C)CC5)cc4C)nc32)c1 = 11.9
3) COc1cc(N2CCN(C)CC2)ccc1Nc1ncc2c(n1)N(c1cccc(N)c1)C(=O)N(C)C2 = 11.2
4) C=CC(=O)Nc1cccc(N2C(=O)N(C)Cc3cnc(Nc4ccc(N5CCN(C)CC5)cc4OC(C)C)nc32)c1 = 11.7
5) C=CC(=O)Nc1cccc(Oc2nc(Nc3ccc(N4CCN(C)CC4)cc3OC)ncc2Cl)c1 = 5.31
6) C=CC(=O)Nc1cccc(N2C(=O)N(C)Cc3cnc(Nc4ccc(N5CCN(C)CC5)cc4OCC)nc32)c1 = 10.3

P = C=CC(=O)Nc1cccc(N2C(=O)N(C)Cc3cnc(Nc4ccc(N5CCOCC5)cc4OC)nc32)c1
Q = C=CC(=O)Nc1cccc(N2C(=O)N(c3ccc(Oc4ccccc4)cc3)Cc3cnc(Nc4ccc(N5CCN(C)CC5)cc4OC)nc32)c1
Req: Compare IC50: is it lower for P or for Q ? When you have decided, please share the label of that item.
Resp: Q
(Q: 1.77 µM, P: 10.5 µM)

* * *

- Subject Of Test: Epidermal growth factor receptor (Homo sapiens, UniProt P00533, L861Q)
- Sequence (P00533 25-1210 L861Q limits assumed): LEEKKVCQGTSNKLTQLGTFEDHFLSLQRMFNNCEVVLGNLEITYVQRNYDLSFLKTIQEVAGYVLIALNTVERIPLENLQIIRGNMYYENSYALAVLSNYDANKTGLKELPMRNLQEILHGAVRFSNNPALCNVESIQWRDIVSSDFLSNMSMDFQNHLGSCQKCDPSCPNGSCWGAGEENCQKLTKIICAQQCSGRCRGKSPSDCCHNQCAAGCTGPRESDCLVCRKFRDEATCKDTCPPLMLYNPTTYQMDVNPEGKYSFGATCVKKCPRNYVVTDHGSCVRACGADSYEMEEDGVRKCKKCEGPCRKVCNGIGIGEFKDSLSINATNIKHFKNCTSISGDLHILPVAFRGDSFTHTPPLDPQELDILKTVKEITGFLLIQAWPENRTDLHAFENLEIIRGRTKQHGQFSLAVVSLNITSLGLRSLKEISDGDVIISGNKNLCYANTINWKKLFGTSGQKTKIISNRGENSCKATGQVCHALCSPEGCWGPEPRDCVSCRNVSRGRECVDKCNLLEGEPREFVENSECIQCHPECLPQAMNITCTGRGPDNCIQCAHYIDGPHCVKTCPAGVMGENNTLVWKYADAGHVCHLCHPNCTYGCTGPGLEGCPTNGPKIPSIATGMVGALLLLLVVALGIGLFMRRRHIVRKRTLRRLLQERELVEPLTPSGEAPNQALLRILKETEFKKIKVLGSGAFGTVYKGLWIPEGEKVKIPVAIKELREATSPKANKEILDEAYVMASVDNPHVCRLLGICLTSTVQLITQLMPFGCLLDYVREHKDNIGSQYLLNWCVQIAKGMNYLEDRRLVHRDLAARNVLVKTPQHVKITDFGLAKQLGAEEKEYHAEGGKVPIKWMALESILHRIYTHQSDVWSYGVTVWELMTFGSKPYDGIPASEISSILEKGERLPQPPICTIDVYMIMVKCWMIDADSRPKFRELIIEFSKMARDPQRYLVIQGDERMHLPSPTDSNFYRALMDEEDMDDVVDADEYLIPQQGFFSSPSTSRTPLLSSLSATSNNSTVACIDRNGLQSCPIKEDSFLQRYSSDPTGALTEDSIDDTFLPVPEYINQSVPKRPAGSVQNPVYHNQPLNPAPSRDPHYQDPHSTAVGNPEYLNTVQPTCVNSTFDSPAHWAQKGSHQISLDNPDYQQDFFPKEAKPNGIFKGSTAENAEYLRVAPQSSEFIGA
- Experimental Protocol: Inhibition of EGFR L861Q mutant after 1.5 hr by FRET assay
pIC50: −log10 of the molar value.
Measure Name: pIC50

Reference set, count: 3
1) C=CC(=O)Nc1cccc(N2C(=O)N(C)Cc3cnc(Nc4ccc(N5CCN(C)CC5)cc4C)nc32)c1 = 8.88
2) C=CC(=O)Nc1cccc(N2C(=O)N(C)Cc3cnc(Nc4ccc(N5CCN(C)CC5)cc4OC(C)C)nc32)c1 = 7.87
3) C=CC(=O)Nc1cccc(N2C(=O)N(C)Cc3cnc(Nc4ccc(N5CCN(C)CC5)cc4OCC)nc32)c1 = 8.52

a = C=CC(=O)Nc1cccc(N2C(=O)N(C)Cc3cnc(Nc4ccccc4)nc32)c1
b = C=CC(=O)Nc1cccc(N2C(=O)N(c3ccc(OCc4ccccc4)cc3)Cc3cnc(Nc4ccc(N5CCN(C)CC5)cc4OC)nc32)c1
c = C=CC(=O)Nc1cccc(N2C(=O)N(C(C)C)Cc3cnc(Nc4ccc(N5CCN(C)CC5)cc4OC)nc32)c1
Req: Thanks in advance: please rank these 3 entries by pIC50, highest to lowest. Respond with the label ranking, as requested.
Resp: c, b, a
(c: 9.34, b: 8.59, a: 7.92)

* * *

This document collects IC50 values reported for Epidermal growth factor receptor (Homo sapiens).
Measure Name: IC50 (nM)

1) C=CC(=O)Nc1cccc(N2C(=O)N(C(C)C)Cc3cnc(Nc4ccc(N5CCN(C)CC5)cc4OC)nc32)c1 = 0.38

I = C=CC(=O)Nc1cccc(N2C(=O)N(C)Cc3cnc(Nc4ccc(N5CCN(C)CC5)cc4)nc32)c1
II = C=CC(=O)Nc1cccc(N2C(=O)N(c3ccccc3)Cc3cnc(Nc4ccc(N5CCN(C)CC5)cc4OC)nc32)c1
III = C=CC(=O)Nc1cccc(N2C(=O)N(C)Cc3cnc(Nc4ccccc4)nc32)c1
Req: Thanks in advance: please rank these 3 entries by IC50, highest to lowest. Respond with the label ranking, as requested.
Resp: III, I, II
(III: 6.95 nM, I: 0.43 nM, II: 0.3 nM)

* * *

- Subject Of Test: Epidermal growth factor receptor (Homo sapiens, UniProt P00533, T790M)
- Sequence (P00533 25-1210 T790M limits assumed): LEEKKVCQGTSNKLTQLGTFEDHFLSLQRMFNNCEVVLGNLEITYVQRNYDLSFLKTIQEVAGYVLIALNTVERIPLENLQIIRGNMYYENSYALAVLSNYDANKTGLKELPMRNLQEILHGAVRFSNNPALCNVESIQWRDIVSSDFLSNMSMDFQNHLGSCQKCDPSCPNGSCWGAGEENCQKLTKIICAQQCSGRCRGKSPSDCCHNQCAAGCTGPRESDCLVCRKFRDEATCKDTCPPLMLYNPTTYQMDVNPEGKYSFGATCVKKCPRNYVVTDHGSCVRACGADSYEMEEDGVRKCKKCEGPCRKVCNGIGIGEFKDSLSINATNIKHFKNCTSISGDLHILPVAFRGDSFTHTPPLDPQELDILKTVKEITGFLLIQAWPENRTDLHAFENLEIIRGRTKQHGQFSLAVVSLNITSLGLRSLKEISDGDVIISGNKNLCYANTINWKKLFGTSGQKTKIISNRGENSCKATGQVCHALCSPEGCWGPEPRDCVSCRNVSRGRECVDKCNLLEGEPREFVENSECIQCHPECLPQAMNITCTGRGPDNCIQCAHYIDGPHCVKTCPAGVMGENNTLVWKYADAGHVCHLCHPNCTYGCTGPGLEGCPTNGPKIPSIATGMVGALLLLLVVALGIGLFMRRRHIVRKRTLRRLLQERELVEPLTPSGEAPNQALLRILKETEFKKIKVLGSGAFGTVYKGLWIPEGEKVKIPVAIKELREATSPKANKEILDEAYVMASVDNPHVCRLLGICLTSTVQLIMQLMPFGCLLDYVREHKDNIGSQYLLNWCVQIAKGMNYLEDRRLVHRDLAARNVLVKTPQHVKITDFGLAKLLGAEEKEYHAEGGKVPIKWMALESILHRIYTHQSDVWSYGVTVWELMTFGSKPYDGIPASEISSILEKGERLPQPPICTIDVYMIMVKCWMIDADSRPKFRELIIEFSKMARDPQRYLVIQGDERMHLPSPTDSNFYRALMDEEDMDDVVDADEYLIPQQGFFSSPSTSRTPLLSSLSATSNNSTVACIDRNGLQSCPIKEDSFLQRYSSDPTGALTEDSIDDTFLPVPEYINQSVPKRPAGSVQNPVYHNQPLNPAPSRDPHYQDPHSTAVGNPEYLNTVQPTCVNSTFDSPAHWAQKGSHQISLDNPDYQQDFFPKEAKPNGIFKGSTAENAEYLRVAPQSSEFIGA
- Experimental Protocol: Inhibition of EGFR T790M mutant after 1.5 hr by FRET assay
pIC50: −log10 of the molar value.
Measure Name: pIC50

Reference set, count: 5
1. C=CC(=O)Nc1cccc(N2C(=O)N(c3ccc(-c4ccccc4)cc3)Cc3cnc(Nc4ccc(N5CCN(C)CC5)cc4OC)nc32)c1 = 8.28
2. C=CC(=O)Nc1cccc(N2C(=O)N(C)Cc3cnc(Nc4ccc(N(C)C)cc4OC)nc32)c1 = 7.60
3. C=CC(=O)Nc1cccc(N2C(=O)N(C)Cc3cnc(Nc4ccc(N5CCCN(C)CC5)cc4OC)nc32)c1 = 7.96
4. C=CC(=O)Nc1cccc(N2C(=O)N(c3ccccc3)Cc3cnc(Nc4ccc(N5CCN(C)CC5)cc4OC)nc32)c1 = 9.29
5. C=CC(=O)Nc1cccc(N2C(=O)N(C)Cc3cnc(Nc4ccc(N5CCC(N(C)C)CC5)cc4OC)nc32)c1 = 8.02

I = C=CC(=O)Nc1cccc(N2C(=O)N(C)Cc3cnc(Nc4ccc(N5CCN(C)CC5)cc4OC(C)C)nc32)c1
II = C=CC(=O)Nc1cccc(N2C(=O)N(c3ccc(Oc4ccccc4)cc3)Cc3cnc(Nc4ccc(N5CCN(C)CC5)cc4OC)nc32)c1
Req: Compare pIC50: is it lower for I or for II ? When you have decided, please share the label of that item.
Resp: I
(I: 7.40, II: 8.69)

* * *

- Subject Of Test: Epidermal growth factor receptor (Homo sapiens, UniProt P00533, L858R)
- Sequence (P00533 25-1210 L858R limits assumed): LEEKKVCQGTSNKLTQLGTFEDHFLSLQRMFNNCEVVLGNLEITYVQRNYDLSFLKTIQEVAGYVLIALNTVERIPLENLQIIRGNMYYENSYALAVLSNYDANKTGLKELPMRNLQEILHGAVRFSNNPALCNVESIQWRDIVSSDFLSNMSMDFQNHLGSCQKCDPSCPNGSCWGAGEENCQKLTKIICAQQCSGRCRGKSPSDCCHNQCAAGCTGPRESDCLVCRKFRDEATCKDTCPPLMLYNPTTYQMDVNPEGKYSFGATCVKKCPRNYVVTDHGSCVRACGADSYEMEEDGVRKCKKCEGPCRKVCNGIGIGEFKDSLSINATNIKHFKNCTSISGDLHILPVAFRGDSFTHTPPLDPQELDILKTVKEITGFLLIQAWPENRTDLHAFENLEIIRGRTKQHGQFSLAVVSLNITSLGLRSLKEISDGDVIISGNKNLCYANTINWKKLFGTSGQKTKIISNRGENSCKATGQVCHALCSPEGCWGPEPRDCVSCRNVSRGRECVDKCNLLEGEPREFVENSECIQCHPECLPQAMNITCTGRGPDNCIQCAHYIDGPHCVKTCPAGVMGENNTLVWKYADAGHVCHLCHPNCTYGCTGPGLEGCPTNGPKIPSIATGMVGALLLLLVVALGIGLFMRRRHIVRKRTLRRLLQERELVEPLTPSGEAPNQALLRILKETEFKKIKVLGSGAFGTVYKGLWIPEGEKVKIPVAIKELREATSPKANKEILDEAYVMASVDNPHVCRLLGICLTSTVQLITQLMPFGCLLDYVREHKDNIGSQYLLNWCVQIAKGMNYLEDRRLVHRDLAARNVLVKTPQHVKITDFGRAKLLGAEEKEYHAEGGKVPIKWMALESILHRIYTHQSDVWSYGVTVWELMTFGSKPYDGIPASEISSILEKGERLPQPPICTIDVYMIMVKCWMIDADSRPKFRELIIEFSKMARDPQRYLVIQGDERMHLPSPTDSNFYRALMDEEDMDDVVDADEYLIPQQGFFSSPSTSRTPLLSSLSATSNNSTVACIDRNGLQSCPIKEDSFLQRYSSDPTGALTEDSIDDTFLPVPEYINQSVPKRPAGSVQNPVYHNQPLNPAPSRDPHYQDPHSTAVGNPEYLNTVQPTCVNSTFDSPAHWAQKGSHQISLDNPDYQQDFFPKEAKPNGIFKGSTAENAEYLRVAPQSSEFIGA
- Experimental Protocol: Inhibition of EGFR L858R mutant after 1.5 hr by FRET assay
Measure Name: IC50 (nM)

1) C=CC(=O)Nc1cccc(N2C(=O)N(C)Cc3cnc(Nc4ccc(N5CCCN(C)CC5)cc4OC)nc32)c1 = 2.11
2) C=CC(=O)Nc1cccc(N2C(=O)N(C)Cc3cnc(Nc4ccc(N5CCC(N(C)C)CC5)cc4OC)nc32)c1 = 2.41
3) C=CC(=O)Nc1cccc(N2C(=O)N(C)Cc3cnc(Nc4ccc(N5CCN(C)CC5)cc4OCC)nc32)c1 = 2.68

* * *

This document collects IC50 values reported for Epidermal growth factor receptor (Homo sapiens, UniProt P00533).
Measure Name: IC50 (nM)

1) C=CC(=O)Nc1cccc(N2C(=O)N(c3ccc(Oc4ccccc4)cc3)Cc3cnc(Nc4ccc(N5CCN(C)CC5)cc4OC)nc32)c1 = 1.52
2) C=CC(=O)Nc1cccc(N2C(=O)N(Cc3ccccc3)Cc3cnc(Nc4ccc(N5CCN(C)CC5)cc4OC)nc32)c1 = 0.29

a = C=CC(=O)Nc1cccc(N2C(=O)N(C)Cc3cnc(Nc4ccc(N5CCOCC5)cc4OC)nc32)c1
b = C=CC(=O)Nc1cccc(N2C(=O)N(C)Cc3cnc(Nc4ccc(N5CCC(N(C)C)CC5)cc4OC)nc32)c1
c = C=CC(=O)Nc1cccc(N2C(=O)N(C)Cc3cnc(Nc4ccc(N5CCCCC5)cc4OC)nc32)c1
d = C=CC(=O)Nc1cccc(N2C(=O)N(c3ccc(-c4ccccc4)cc3)Cc3cnc(Nc4ccc(N5CCN(C)CC5)cc4OC)nc32)c1
Req: Thanks in advance: please rank these 4 entries by IC50, highest to lowest. Respond with the label ranking, as requested.
Resp: c, a, b, d
(c: 29.5 nM, a: 16.4 nM, b: 3.52 nM, d: 1.41 nM)

* * *

- Test system: A-431
- Experimental Protocol: Antiproliferative activity against human A431 cells overexpressing EGFR after 72 hrs by MTS assay
- Experimental Setup: A-431, 72 h
pIC50: −log10 of the molar value.
Measure Name: pIC50

1. CCC(=O)Nc1cccc(N2C(=O)N(C)Cc3cnc(Nc4ccc(N5CCN(C)CC5)cc4OC)nc32)c1 = < 5.00
2. C=CC(=O)Nc1cccc(N2C(=O)N(C)Cc3cnc(NC)nc32)c1 = < 5.00

Req: Under A-431: pIC50 value of "C=CC(=O)Nc1cccc(N2C(=O)N(C)Cc3cnc(Nc4ccc(N5CCN(C)CC5)cc4F)nc32)c1" ?
Resp: < 5.00

* * *

Listed below: IC50 values for each entry.
- Subject Of Test: Epidermal growth factor receptor (Homo sapiens, UniProt P00533, T790M)
- Experimental Protocol: Inhibition of EGFR T790M mutant after 1.5 hr by FRET assay

Reference set, count: 2
1) C=CC(=O)Nc1cccc(N2C(=O)N(C)Cc3cnc(Nc4ccc(N5CCN(C)CC5)cc4F)nc32)c1 = > 1000 nM
2) CCC(=O)Nc1cccc(N2C(=O)N(C)Cc3cnc(Nc4ccc(N5CCN(C)CC5)cc4OC)nc32)c1 = > 1000 nM

# ---- query compound ----
Req: Field request: IC50 | item: "C=CC(=O)Nc1cccc(N2C(=O)N(Cc3ccccc3)Cc3cnc(Nc4ccc(N5CCN(C)CC5)cc4OC)nc32)c1"
Resp: 0.67 nM

The reported numbers originate from ChEMBL document CHEMBL2029259.
